Below, each of the compounds is paired with its reported IC50 value.
# target.or.test.system: biotinylated amyloid-beta(1-42) (bioAbeta42) (Homo sapiens, UniProt P05067)
# Sequence (P05067 672-713): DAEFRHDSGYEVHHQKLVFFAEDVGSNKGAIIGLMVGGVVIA
# Format: biochemical
# cond: Example 5; ND = inhibition activity not detected over 200 μM; read-out: Inhibition of Aβ oligomerization, μM IC50

Examples with their reported IC50 follow.
- COc1ccc(CNS(=O)(=O)c2cc(C(=O)O)c(NCc3ccco3)cc2Cl)cc1: > 200 µM
- O=C(O)c1ccc(Cl)cc1NCc1ccco1: > 200 µM
- CN(C)S(=O)(=O)c1cc(C(=O)O)c(NCc2ccco2)cc1Cl: 113 µM
- COc1ccc(C(O)C(F)(F)F)c(NCc2ccco2)c1 (stereo not shown): > 200 µM
- NC(=O)c1cc(C(=O)O)c(NCc2ccco2)cc1Cl: > 200 µM
- O=C(O)c1cc(C(=O)N2CCCCC2)c(Cl)cc1NCc1ccco1: > 200 µM

IC50 reported for this compound O=C(O)c1ccc(F)cc1NCc1ccco1 : 130 µM

IC50 reported for this compound Cc1ccc(CNS(=O)(=O)c2cc(C(=O)O)c(NCc3ccco3)cc2Cl)cc1 : > 200 µM

IC50 reported for this compound OC(c1ccc(Cl)cc1NCc1ccco1)C(F)(F)F (stereo not shown) : > 200 µM

IC50 reported for this compound O=C(O)c1cc(S(=O)(=O)NCc2ccc(C(O)C(F)(F)F)cc2)c(Cl)cc1NCc1ccco1 (stereo not shown) : 68.5 µM

###

# target.or.test.system: biotinylated amyloid-beta(1-42) (bioAbeta42) (Homo sapiens)
# Assay type: biochemical
# cond: Example 5; ND = inhibition activity not detected over 200 μM; read-out: Inhibition of Aβ oligomerization, μM IC50
measured.parameter: IC50 (µM)

[a] CNS(=O)(=O)c1cc(C(=O)OC)c(NCc2ccco2)cc1Cl [WW100]
[b] CCNS(=O)(=O)c1cc(C(=O)O)c(NCc2ccco2)cc1Cl [WW057]
Query block: Hey, between a and b which has a smaller measured IC50? Mark your selection by writing its label.
Result block: a
(a: 56 µM, b: 137 µM)

[a] O=C(O)c1ccc(Br)cc1NCc1ccco1 [WW073]
[b] CNS(=O)(=O)c1cc(-c2nnn[nH]2)c(NCc2ccco2)cc1Cl [WW121]
Query block: Hey, between a and b which has a smaller measured IC50? Mark your selection by writing its label.
Result block: b

###

# target.or.test.system: Aβ 1-40 (Homo sapiens)
# procedure.summary: Aβ ThT aggregation (fibrillization) assay
# Type: biochemical
# cond: compound at 100 μM; Example 5; versus DMSO control
measured.parameter: Inhibition of Aβ fibrillization at concentration 100 μM, Inhibition %

Examples with their reported Inhibition of Aβ fibrillization at concentration 100 μM, Inhibition % follow.
- CNC(=O)c1cc(S(=O)(=O)NC)c(Cl)cc1NCc1ccco1: Pro- fibrillization
- CNS(=O)(=O)c1cc(C(N)=O)c(NCc2ccco2)cc1Cl: Pro- fibrillization
- O=C(O)c1cc(S(=O)(=O)N2CCOCC2)c(Cl)cc1NCc1ccco1: Pro- fibrilliza- tion
- CNS(=O)(=O)c1cc(C(=O)O)c(NCc2ccco2)cc1Cl: Pro- fibrilliza- tion
- CN(C)S(=O)(=O)c1cc(C(=O)O)c(NCc2ccco2)cc1Cl: Pro- fibrilliza- tion

Proceeding to the next molecule to report its Inhibition of Aβ fibrillization at concentration 100 μM, Inhibition %.
Inhibition of Aβ fibrillization at concentration 100 μM, Inhibition % reported for this molecule O=C(O)c1cc(S(=O)(=O)NCc2ccc(C(O)C(F)(F)F)cc2)c(Cl)cc1NCc1ccco1 (stereo not drawn) : Pro- fibrilliza- tion
